B1: OR4K15 (parent)
chain: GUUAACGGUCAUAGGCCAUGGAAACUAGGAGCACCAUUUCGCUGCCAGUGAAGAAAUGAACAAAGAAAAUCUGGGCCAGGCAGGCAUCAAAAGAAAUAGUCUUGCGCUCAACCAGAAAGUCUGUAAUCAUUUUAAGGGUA

Variants of: B1
test_description: self-cleavage, relative activity (ratio to wild type); higher = more cleavage; in vitro, sequencing; the parent is a self-cleaving ribozyme
Form field: self-cleavage (one value per entry).
The reply should be a number, written without any unit.

A selection of reference data follows.
self-cleavage for GUUAACGGUCAUAGGCCAUGGAAACUAGGAGCACCAUUUCGCUGCCAGUGUAGAAAUGAACAAAGAAAAUCUGGGCCAGGCAGGCAUCAAAAGAAAUAGUCUUGCGCUCAACCAGAGAGUCUGUAAUCAUUUUAAGGGUA [A51U A117G] ?
2.45

self-cleavage for GUUAACGGUCAUAGGCCACGGAAACUAGGAGCACCAUUUCGCUGCCAGUGAAGAAAUGAACAAAGAAAAUCUGGGCCAGGCAGGCAUCAAAAGAAAUAGUCUUGCGCUCAACCAGAUAGUCUGUAAUCAUUUUAAGGGUA [U19C A117U] ?
0.58

self-cleavage for GUUAACGGUCAUUGGCCAUGGAAACUAGGAGCACCAUUUCGCUGCCAGUGAAGAAACGAACAAAGAAAAUCUGGGCCAGGCAGGCAUCAAAAGAAAUAGUCUUGCGCUCAACCAGAAAGUCUGUAAUCAUUUUAAGGGUA [A13U U57C] ?
0.64

Continuing:
self-cleavage for GUUAACGGUCAUAGGCCAUGGAAACUGGGAGCACCAUUUCGCUGCCAGUGAAGAAAUGAACAAAGAAAAUCUGGGCCAGGCAGGCAUCAAAAGAAAUAGUCUUGCGCUCAACCAGAAAGUCAGUAAUCAUUUUAAGGGUA [A27G U122A] ?
1.47
